The measurements presented in this section are drawn from the nanobody polyreactivity screen of Harvey et al. (2022).

assay_summary: yeast display, Sf9 membrane polyspecificity reagent, FACS + sequencing; frameworks hold sequencing errors
readout_kind: polyreactivity (PSR sort gate)

These recorded examples may help you get a feel for the data.
input_sequence: QVQLEESGGGLVQAGGSLRLSCAASGRIFRANAMGRYRQAPGKERELVADITRRGASTYYADSVKGRFTISRDNAKNTVYLQMNSLKPEDTAVYYCNARGWPSSLLYLRDRYQMDYWGQGTQVTVSS
polyreactivity (PSR sort gate): low polyreactivity

input_sequence: QVQLVESGGGLVQAGGSLRLSCAASGSIFISYAMGWYRQAPGKERELVAAISSGGSTNYADSVKGRFTISRDNAKNTVYLQMNSLKPEATAVYYCAADGWLWSFTGDGWWFDYWGQGTQVTVSS
polyreactivity (PSR sort gate): low polyreactivity

input_sequence: QVQLVESVGGLVQAGGTLRLSCSASGSTFNVYAMGWYIQATGKERELVAAITRRGGSTYYADSVKGRFTISRDNAKNTVYLQMNSLKPEDTADYYFAARRRLDYYYYNYWGQGTQETVSS
polyreactivity (PSR sort gate): high polyreactivity

input_sequence: QVHLVESGGGLVQAGGSLRLSCAASGRIFYSNVMGWYSQAPGKERELLAAISWSGGRTYYADSVKGRFTISRDNAKNTVYLQMNSLKPEDTAVYYCAAPGGVKYDYWGQGTQVTVSS
polyreactivity (PSR sort gate): high polyreactivity

Let us move to another entry and its polyreactivity (PSR sort gate).
(Q) May I ask what polyreactivity (PSR sort gate) has been recorded for QVQLVESGGGLVQAGGSLRLSSAASGSTFRYNTMGWYRQAPGKERELVAAINISSSSTYYADSVKGRFTISRDNAKNTVYFQINSLKPEDTAVYYCAKRDYVPIATDENDDYWGQGTQVTVSS ?
(A) low polyreactivity

----------
assay_summary: yeast display, Sf9 membrane polyspecificity reagent, FACS + sequencing; frameworks hold sequencing errors

input_sequence: QVQLVESGGGLVQAGGSLRLSCAASGITFYKNTMGWYRQAPGKERELVAAISSSGDNTFYADSVKGRFTISRDNAKNTVYLQMNSLKPEDTAVYYCATYRVINTIRGYYYTYDYWGQGTQVTVSS
polyreactivity (PSR sort gate): high polyreactivity
//
input_sequence: QVQLVESGGGLVQAGGSLRLSCAASGSTFQGYAMGWYRQAPGKERELVAAISRSGSGTYYADSVKGRFTISRDNAKNTVYLQMNSLKPEDTAVYYCAKDDVRRSTSRHYYYWGHGTQVTVSS
polyreactivity (PSR sort gate): high polyreactivity

----------
assay_summary: yeast display, Sf9 membrane polyspecificity reagent, FACS + sequencing; frameworks hold sequencing errors
readout_kind: polyreactivity (PSR sort gate)

These recorded examples may help you get a feel for the data.
input_sequence: QVQLVESGVGLVQAAGSLRLSCASSGIICGEYAMGWYRQAPGNERELVAAISGSGSRTYYADSVKVRFTISRDIAKNTVFLQMNRLKPEDTAVYYCNSRRYIYNYDYWGQGTQVTVSS
endpoint_result: high polyreactivity
//
input_sequence: QVQLVESGGGLVQAGGSLRLSCAASGSTFTYYAMGWYRQAPGKERELVAAITSRGGITYYADSVKGRFTISRDNAKNTVYLQMHSLKPEDTAVYYCNAYSQRYGYYYWGQGTQVTVSS
endpoint_result: high polyreactivity
//
input_sequence: QVQLVESGGGLVQAGGSLRLSCAASGLIFGYYAMGWYRQAPGKEREFVAAIDGSDGTTYYADSVKGRFTISRDNAKNTVYLQMTSQKPEDTAVYYCNADSSSYSSDLGYDYWGQGTQVTVSS
endpoint_result: low polyreactivity
//
input_sequence: QVQLVESGGGLVQAGGSLRLSCAASGSIFFGNAMGWYRQAPGKERELVAAIDSGGGTNYADSVKGRFTISRDNAKNTVYLQMNSLKPEDTAVYYCAREQGVNRNHDYWGQGTQVTVSS
endpoint_result: low polyreactivity

Let us move to another entry and its polyreactivity (PSR sort gate).
(Q) May I ask what polyreactivity (PSR sort gate) has been recorded for QVQLVESGGGLVQAGGSLRLSCAASGSIFDYNAMGWYRQAPGKERELVAAISRSGGSTYYADSVKGRFTISRDNAKNTVYLQMNSLKPEDTAVYYCAALPSRPRGYDYWGHGTQVTVSS ?
(A) high polyreactivity
